Target: pY641-STAT6 in PBMC (Homo sapiens, UniProt P42226)
Construct: Cryopreserved Peripheral Blood Mononuclear Cells (PBMC) are from AllCells; host or cells: cryopreserved PBMC
Sequence (P42226 whole entry): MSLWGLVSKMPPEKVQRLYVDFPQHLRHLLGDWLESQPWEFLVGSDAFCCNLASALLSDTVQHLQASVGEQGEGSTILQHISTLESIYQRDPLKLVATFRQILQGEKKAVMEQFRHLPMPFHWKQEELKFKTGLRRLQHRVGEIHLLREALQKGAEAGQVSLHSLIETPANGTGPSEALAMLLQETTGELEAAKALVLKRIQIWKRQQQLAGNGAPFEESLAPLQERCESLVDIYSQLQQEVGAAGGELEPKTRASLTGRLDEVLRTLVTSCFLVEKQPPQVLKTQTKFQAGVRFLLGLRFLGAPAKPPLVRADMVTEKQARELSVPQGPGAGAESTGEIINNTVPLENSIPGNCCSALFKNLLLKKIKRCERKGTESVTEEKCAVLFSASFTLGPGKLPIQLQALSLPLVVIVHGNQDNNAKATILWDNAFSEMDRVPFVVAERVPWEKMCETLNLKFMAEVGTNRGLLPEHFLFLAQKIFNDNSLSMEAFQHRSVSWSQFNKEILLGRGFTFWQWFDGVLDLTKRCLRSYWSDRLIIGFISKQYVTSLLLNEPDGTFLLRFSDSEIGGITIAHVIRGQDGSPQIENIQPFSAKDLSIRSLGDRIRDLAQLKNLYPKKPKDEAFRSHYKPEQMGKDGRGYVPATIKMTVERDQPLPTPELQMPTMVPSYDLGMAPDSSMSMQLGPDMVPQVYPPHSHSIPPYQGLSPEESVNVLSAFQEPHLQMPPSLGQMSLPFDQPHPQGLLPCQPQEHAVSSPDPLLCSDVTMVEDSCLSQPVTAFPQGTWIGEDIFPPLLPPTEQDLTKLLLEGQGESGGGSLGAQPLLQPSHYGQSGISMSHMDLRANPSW
Test: MSD-pSTAT-PBMC Assay (pSTAT6, IL-4 stimulated)
Format: cell-based
Conditions: PBMC, compound 3 hrs, then 1 ng/mL IL-4 for 10 min; Table 1114; read-out: pSTAT6
Experimental: Cryopreserved Peripheral Blood Mononuclear Cells (PBMC) are from AllCells. Recombinant Human IL-4 and IL-6 are from Peprotech. […] Cyropreserved PBMCs were thawed out and allowed to recover overnight in IMDM+10% heat-inactivated FBS prior to plating 50,000 (STAT3) or 25,000 (STAT6) cells per well in 96-well U-bottom tissue culture plates. […] Assay plates were then washed and 150 μL of 1× Read Buffer-T (MSD) was added to each well prior to reading on an SQ120 MSD Plate Reader. […]
pIC50: −log10 of the molar value.
Reported pIC50 by item:

{"columns": ["molecule", "target", "pIC50"],
 "data": [
  ["CN(C(=O)[C@@H]1CC[C@@H]2C/C=C\\C[C@H](NC(=O)c3cc4cc(C(F)(F)P(=O)(OCOC(=O)C(C)(C)C)OCOC(=O)C(C)(C)C)ccc4[nH]3)C(=O)N21)c1ccccc1", "pY641-STAT6 in PBMC (Homo sapiens, UniProt P42226)", "6.00 to 7.00"],
  ["CC(C)(C)C(=O)OCOP(=O)(OCOC(=O)C(C)(C)C)C(F)(F)c1ccc2sc(C(=O)NC3CCCCC4CCCC(C(=O)N5CC(C#N)C(c6ccccc6)C5)N4C3=O)cc2c1 (stereo not drawn)", "pY641-STAT6 in PBMC (Homo sapiens, UniProt P42226)", "> 7.00"],
  ["CCCC(=O)SCCOP(=O)(OCCSC(=O)CCC)C(F)(F)c1ccc2sc(C(=O)N[C@H]3CCCC[C@H]4CC[C@@H](C(=O)N(C)c5ccc6nnccc6c5)N4C3=O)cc2c1", "pY641-STAT6 in PBMC (Homo sapiens, UniProt P42226)", "> 7.00"],
  ["CC(C)(C(=O)SCCOP(=O)(OCCSC(=O)C(C)(C)C(F)(F)F)C(F)(F)c1ccc2sc(C(=O)N[C@H]3CCCC[C@H]4CC[C@@H](C(=O)N5C[C@@H](C#N)[C@H](c6ccccc6)C5)N4C3=O)cc2c1)C(F)(F)F (single isomer, unassigned)", "pY641-STAT6 in PBMC (Homo sapiens, UniProt P42226)", "< 5.52"],
  ["CC(C)(C)C(=O)OCOP(=O)(OCOC(=O)C(C)(C)C)C(F)(F)c1ccc2sc(C(=O)N[C@@]3(C)CCCC[C@H]4CC[C@@H](C(=O)N5CC(C(=O)N6CCOCC6)C5)N4C3=O)cc2c1", "pY641-STAT6 in PBMC (Homo sapiens, UniProt P42226)", "< 5.52"]
]}

Sure, the documented pIC50 for CC(C)(C)C(=O)OCOP(=O)(OCOC(=O)C(C)(C)C)C(F)(F)c1ccc2ccc(C(=O)N[C@H]3CCCC[C@H]4CC[C@@H](C(=O)N5C[C@H](c6ccccc6)[C@@H](C#N)C5)N4C3=O)cc2c1 (relative stereo) is > 7.00

Sure, the documented pIC50 for CC(C)(C)C(=O)SCCOP(=O)(OCCSC(=O)C(C)(C)C)C(F)(F)c1ccc2sc(C(=O)N[C@H]3CCCC[C@H]4CC[C@@H](C(=O)N5C[C@@H](C#N)[C@H](c6ccccc6)C5)N4C3=O)cc2c1 (single isomer, unassigned) is 6.00 to 7.00

Sure, the documented pIC50 for `CC(C)(C)C(=O)OCOP(=O)(OCOC(=O)C(C)(C)C)C(F)(F)c1ccc2sc(C(=O)N[C@H]3CCC[C@H]4CC[C@@H](C(=O)N5CC(c6cccnc6)C5)N4C3=O)cc2c1` is < 5.52

Sure, the documented pIC50 for `CC(C)(C)C(=O)OCOP(=O)(OCOC(=O)C(C)(C)C)C(F)(F)c1ccc2sc(C(=O)N[C@H]3CCCC[C@H]4CC[C@@H](C(=O)N5CCN(C(=O)c6cn[nH]c6)CC5)N4C3=O)cc2c1` is 5.52 to 6.00
